test: Clearance in dog at 2 mg/kg, iv; type: ADME, organism-based, Canis lupus familiaris; set-up: dose 2 mg/kg, route intravenous; conditions: in vivo
readout_type: clearance (mL/min/kg)
Output spec: scalar in mL/min/kg, unitless text.

Reported clearance for CCOc1nc(NC(=O)C2(NC(=O)c3ccc4c(C5CCCC5)c(-c5ncc(Cl)cn5)n(C)c4c3)CCC2)ccc1/C=C/C(=O)O was 0.9

----------
experiment: Volume of distribution at steady state in rat at 5 mg/kg, po and 2 mg/kg, iv; format: ADME, organism-based; conditions: in vivo, read-out: Vdss
readout_type: Vd (L/kg)
Output spec: scalar in L/kg, unitless text.

Reported Vd for CCOc1nc(NC(=O)C2(NC(=O)c3ccc4c(C5CCCC5)c(-c5ncc(Cl)cn5)n(C)c4c3)CCC2)ccc1/C=C/C(=O)O was 0.28

These measurements were taken from ChEMBL document CHEMBL3400098.
